Listed below: cytotoxicity at 10 µM values for each entry.
protocol: Toxicity liver stage against HepG2, at 10uM
Assay type: cell-based
Design: test concentration 10 uM, cell line HepG2-A16-CD81EGFP
measurement.context: human, HepG2-A16-CD81EGFP cells; read-out: INHIBITION
measurement.name: cytotoxicity at 10 µM (%)

1) CN(C)CC(=O)N1CCC2(CC1)COc1ccccc1S(=O)(=O)N(C)C2 = 0.0039
2) NC(=O)C1(c2cnccn2)CCCN1Cc1ccc(Cl)c(F)c1 (centres undefined) = -4
3) CC(C)C(=O)N1CCCC(c2cc(C(F)F)n3ncnc3n2)C1 (centres undefined) = 1.18
4) O=C(NCCCn1nc2ccccn2c1=O)NCc1ccccc1 = -16.1
5) O=C(CC1COCCN1)N1CCCN(C2Cc3ccccc3C2)CC1 (centres undefined) = -139
6) O=c1c2cnc(N3CCCC3)nc2ccn1-c1cccc(C(F)(F)F)c1 = 16.9
7) COCCN1CC(Nc2nc(C(C)C)nc3c2cnn3C)CC1=O (centres undefined) = -1.52
8) Cc1ccc(F)c(C(=O)N2C[C@@H](C(=O)O)[C@H](c3ccncc3)C2)c1Cl = -2.37
9) CC(C)CCc1noc(CN2CCCC(CNS(N)(=O)=O)C2)n1 (centres undefined) = 2.48
10) NCC1Cc2cc(Oc3cc(F)c(CN4CCCC4)c(F)c3)ccc2O1 (centres undefined) = -8.97
11) Cc1nc2cc(NCc3cnn(C)c3)ccc2n1C = 13.1
12) CCS(=O)(=O)N1CCC(NC(=O)c2cc(C)ccc2O)CC1 = -8.92
13) CC(=O)N(Cc1noc(C2CC2)n1)C1CCN(Cc2cc(C)on2)C1 (centres undefined) = -6.08
14) CN(Cc1coc(-c2ccccc2)n1)CC1CCCN1c1cccnn1 (centres undefined) = -10.4
15) COc1ccc(Cn2cc(C(=O)N(C)Cc3ccn[nH]3)nn2)cc1 = 8.95
16) c1ccc(-c2nc(CNC3CCc4ncnn4C3)cs2)cc1 (centres undefined) = -6.19
17) Cc1cc(C)n(CC2CCCN2Cc2c(C)noc2C)n1 (centres undefined) = -4.08
18) CC(=O)N1CCN(Cc2nccs2)CC2(CC(=O)N(C)C2)C1 (centres undefined) = 3.03
19) CCN1CCN2CCCN(S(=O)(=O)c3ccc(C)cc3C)C2C1=O (centres undefined) = 0.515
20) Nc1nccc(C2CN(Cc3ccc(-c4ccccc4C(=O)O)o3)C2)n1 = 5
21) Cn1cnnc1CNC(=O)c1ccc(Br)cc1O = -4.06
22) Cc1cc2nc(SCC(=O)N3CCCCC3)n(C)c(=O)c2[nH]1 = 5.56
23) CS(=O)(=O)N1CCO[C@@H]2CN(C(=O)N3CCCC3)CC[C@@H]2C1 = -101
24) Cc1nc(CC(=O)N2CCCC2c2nc(C(C)C)no2)cs1 (centres undefined) = 4.33
